Listed next: entries and their corresponding apparent Kd.
Tested on: MS2 coat protein
assayRemarks: apparent Kd, MS2 coat protein; higher = weaker binding; RNA-MaP array
conditionDescription: ligand present: theophylline; designed as: ON switch for theophylline
propertyLabel: apparent Kd (µM)

{"orderedResidues": "CAUGAUAAGUUGGAUACCAGCAUAUGGAACAACAUGAGGAUCACCCAUGUCAAAUGACAUUGCCCUUGGCAGCCACCUACUGUCA", "propertyLabel": "apparent Kd", "measuredNumber": 0.0111}
{"orderedResidues": "AAUCCAAGAAAUGAUACCAGUCCCACUCAGGACAUGAGGAUCACCCAUGUAAUACAGGGAGACCCUUGGCAGCAUCGAAUAAACA", "propertyLabel": "apparent Kd", "measuredNumber": 0.0827}
{"orderedResidues": "GCAUUACAUGAGGAUCACCCAUGUCUAGAUACCAGAUUUGUUUGAAUCCCUUGGCAGCUAGUGGACCACCGUACACGACAUACUA", "propertyLabel": "apparent Kd", "measuredNumber": 0.0249}
